system: Xanthomonas campestris pv. campestris; test: Xanthomonas campestris pv. campestris in vitro cell test; format: cell-based; details: 5 ppm of active ingredient, 24 h of incubation, read-out: efficacy (inhibition of bacteria growth; no direct activity)
RECORDED_METRIC: inhibition at 5 ppm

1. CCOC(=O)[C@@H](NC(=S)c1sc(Br)c(Br)c1C)C(C)C: ≤ 30%
2. COC(=O)C1(NC(=O)c2sc(Cl)c(Cl)c2C)CCC1: ≤ 30%
3. CCOC(=O)C(C#N)NC(=O)c1sc(Br)c(Br)c1C (stereo not shown): ≤ 30%
4. COC(=O)[C@H](CCCNC(=N)N)NC(=O)c1sc(Cl)c(Cl)c1C: ≤ 30%
5. CCOC(=O)CN(C)C(=O)c1sc(Br)c(Br)c1C: ≤ 30%
6. COC(=O)C(C)(C)NC(=O)c1sc(Cl)c(Cl)c1C: ≤ 30%
7. CCOC(=O)C(CC(N)=O)NC(=O)c1sc(Br)c(Br)c1C (stereo not shown): ≤ 30%
8. Cc1c(C(=O)NC(C(=O)O)C2CC2)sc(Br)c1Br (stereo not shown): ≤ 30%
9. Cc1c(C(=S)N[C@H](C(=O)O)C(C)C)sc(Br)c1Br: ≤ 30%
10. COC(=O)C(NC(=O)c1sc(Br)c(Br)c1C)C1CC1 (stereo not shown): ≤ 30%
11. C=CC1CC1(NC(=O)c1sc(Br)c(Br)c1C)C(=O)OC (stereo not shown): ≤ 30%
12. COC(=O)[C@H](CCCNC(=N)N)NC(=O)c1sc(Br)c(Br)c1C: ≤ 30%
13. Cc1c(C(=O)NC(CC(N)=O)C(=O)O)sc(Br)c1Br (stereo not shown): ≤ 30%
14. CCOC(=O)C(Cc1c[nH]c2ccccc12)NC(=O)c1sc(Cl)c(Cl)c1C (stereo not shown): ≤ 30%
15. COC(=O)C(NC(=O)c1sc(Cl)c(Cl)c1C)C1CC1 (stereo not shown): ≤ 30%
16. Cc1c(C(=S)NC2(C(=O)O)CC2)sc(Cl)c1Cl: ≤ 30%
17. CCOC(=O)C(NC(=O)c1sc(Cl)c(Cl)c1C)C(F)(F)F (stereo not shown): ≤ 30%
18. CCOC(=O)C1(NC(=O)c2sc(Br)c(Br)c2C)COC1: ≤ 30%
19. CCOC(=O)C(COC)NC(=O)c1sc(Cl)c(Cl)c1C (stereo not shown): ≤ 30%
20. CCOC(=O)C(NC(=O)c1sc(Cl)c(Cl)c1C)C1CC1 (stereo not shown): ≤ 30%
21. COC(=O)CC[C@H](NC(=O)c1sc(Br)c(Br)c1C)C(=O)OC: ≤ 30%
22. COC(=O)C(NC(=O)c1sc(Cl)c(Cl)c1C)c1cccs1 (stereo not shown): ≤ 30%
23. COC(=O)C(CC(F)F)NC(=O)c1sc(Cl)c(Cl)c1C (stereo not shown): ≤ 30%
24. CCOC(=O)C(CO)NC(=O)c1sc(Br)c(Br)c1C (stereo not shown): ≤ 30%
25. COC(=O)C(CC(F)F)NC(=O)c1sc(Br)c(Br)c1C (stereo not shown): ≤ 30%
26. COC(=O)C(Cc1c[nH]cn1)NC(=O)c1sc(Br)c(Br)c1C (stereo not shown): ≤ 30%
27. CONC(=O)[C@@H](NC(=O)c1sc(Br)c(Br)c1C)C(C)C: ≤ 30%
28. CCOC(=O)C(CO)NC(=O)c1sc(Cl)c(Cl)c1C (stereo not shown): ≤ 30%
29. CCOC(=O)C1(NC(=O)CNC(=O)c2sc(Br)c(Br)c2C)CC1: ≤ 30%
30. COC(=O)C1(NC(=O)c2sc(Br)c(Br)c2C)CCC(F)(F)CC1: ≤ 30%
31. COC(=O)CC[C@H](NC(=O)c1sc(Cl)c(Cl)c1C)C(=O)OC: ≤ 30%
32. CCOC(=O)C(COC)NC(=O)c1sc(Br)c(Br)c1C (stereo not shown): ≤ 30%
33. COC(=O)C1(NC(=O)c2sc(Br)c(Br)c2C)CSC1: ≤ 30%
34. Cc1c(C(=O)NC(C(=O)O)C2CC2)sc(Cl)c1Cl (stereo not shown): ≤ 30%
35. Cc1c(C(=O)NC(C)(C)C(=O)O)sc(Cl)c1Cl: ≤ 30%
36. Cc1c(C(=O)NC2(C(=O)O)CCC2)sc(Cl)c1Cl: ≤ 30%
37. CCOC(=O)C1(NC(=O)c2sc(Cl)c(Cl)c2C)CCC1: ≤ 30%
38. CCOC(=O)C(CC(N)=O)NC(=O)c1sc(Cl)c(Cl)c1C (stereo not shown): ≤ 30%
39. Cc1c(C(=O)NC(Cc2c[nH]c3ccccc23)C(=O)O)sc(Cl)c1Cl (stereo not shown): ≤ 30%
40. CCSC(=O)C1(NC(=O)c2sc(Cl)c(Cl)c2C)CC1: ≤ 30%

* * *

Measured LogP values are reported for all entries that follow.
Assay: LogP by HPLC on reversed phase columns (EEC directive 79/831 Annex V.A8)
Type: physicochemical
Conditions: method [a]
Method: [table] If more than one Log P value is available within the same method, all the values are given and separated by “+”. Calibration was done with straight-chain alkan2-ones (with 3 to 16 carbon atoms) with known Log P values (measurement of Log P values using retention times with linear interpolation between successive alkanones). Lambda-max-values were determined using UV-spectra from 200 nm to 400 nm and the peak values of the chromatographic signals.
RECORDED_METRIC: LogP

1. Cc1c(C(=O)NCC(=O)NC2(C(=O)O)CC2)sc(Br)c1Br: 1.95^[a]
2. Cc1c(C(=O)NC(CC(N)=O)C(=O)O)sc(Cl)c1Cl (centres unmarked): 1.73^[a]
3. COC(=O)[C@H](CSC(=O)N(C)C)NC(=O)c1sc(Cl)c(Cl)c1C: 3.35^[a]
4. CCOC(=O)C(CC1CC1)NC(=O)c1sc(Cl)c(Cl)c1C (centres unmarked): 4.23^[a]
5. CCOC(=O)CNC(=S)c1sc(Cl)c(Cl)c1C: 3.92^[a]
6. COC(=O)[C@@H](CC(N)=O)NC(=O)c1sc(Br)c(Br)c1C: 2.12^[a]
7. Cc1c(C(=S)NC(C)C(=O)O)sc(Br)c1Br (centres unmarked): 3.05^[a]
8. COC(=O)C1(NC(=S)c2sc(Cl)c(Cl)c2C)CC1: 3.68^[a]
9. COC(=O)[C@H](CCC(N)=O)NC(=O)c1sc(Cl)c(Cl)c1C: 2.06^[a]
10. CCOC(=O)C1(C2(NC(=O)c3sc(Br)c(Br)c3C)CC2)CC1: 4.37^[a]
11. Cc1c(C(=O)NC2(C3(C(=O)OC(C)C)CC3)CC2)sc(Br)c1Br: 4.87^[a]
12. CCOC(=O)C1(NC(=S)c2sc(Br)c(Br)c2C)CC1: 4.15^[a]
13. CCOC(=O)CN(O)C(=O)c1sc(Cl)c(Cl)c1C: 2.95^[a]
14. Cc1c(C(=O)NC2(C(=O)OCC3CC3)CCC2)sc(Cl)c1Cl: 4.19^[a]
15. Cc1c(C(=O)NC2(C(=O)OC(C)(C)C)CC(F)(F)C2)sc(Cl)c1Cl: 4.48^[a]
16. COC(=O)C(NC(=O)c1sc(Br)c(Br)c1C)C(=O)OC: 3.10^[a]
17. Cc1c(C(=O)NC2(C#N)CC2)sc(Br)c1Br: 2.80^[a]
18. COC(=O)[C@H](CC(=O)OC(C)(C)C)NC(=O)c1sc(Cl)c(Cl)c1C: 4.17^[a]
19. COC(=O)CC1(NC(=O)c2sc(Br)c(Br)c2C)CC1: 3.07^[a]
20. Cc1c(C(=O)NC2(C(=O)NC3CCC3)CC2)sc(Br)c1Br: 2.94^[a]
21. COC(=O)[C@H](CCC(=O)O)NC(=O)c1sc(Br)c(Br)c1C: 2.46^[a]
22. COC(=O)CC(NC(=O)c1sc(Cl)c(Cl)c1C)C(=O)OC (centres unmarked): 3.00^[a]
23. Cc1c(C(=S)NC2(C(=O)O)CC2)sc(Br)c1Br: 2.91^[a]
24. CCOC(=O)C(CC(F)(F)F)NC(=O)c1sc(Br)c(Br)c1C (centres unmarked): 3.99^[a]
25. Cc1c(C(=O)NC(CCC(N)=O)C(=O)O)sc(Br)c1Br (centres unmarked): 1.77^[a]
26. Cc1c(C(=O)NC(C#N)Cc2ccccc2)sc(Br)c1Br (centres unmarked): 4.01^[a]
27. COC(=O)C1(NC(=O)c2sc(Br)c(Br)c2C)CCOC1 (centres unmarked): 2.84^[a]
28. CCOC(=O)[C@H](CO)NC(=O)c1sc(Cl)c(Cl)c1C: 2.53^[a]
29. Cc1c(C(=O)NC2(C#N)CCSCC2)sc(Br)c1Br: 3.59^[a]
30. COC(=O)C1(NC(=O)c2sc(Cl)c(Cl)c2C)COC1: 2.52^[a]
31. CCOC(=O)C1(NC(=O)c2sc(Cl)c(Cl)c2C)CSC1: 3.60^[a]
32. COC(=O)C(CCSC(C)=O)NC(=O)c1sc(Cl)c(Cl)c1C (centres unmarked): 3.59^[a]
33. CCSC(=O)C(NC(=O)c1sc(Cl)c(Cl)c1C)C(C)C (centres unmarked): 4.69^[a]
34. Cc1c(C(=O)NC2(C(N)=O)CC2)sc(Br)c1Br: 2.07^[a]
35. CCOC(=O)CCNC(=O)c1sc(Cl)c(Cl)c1C: 3.06^[a]
36. CCOC(=O)C1(NC(=O)c2sc(Br)c(Br)c2C)CN(C(=O)OC(C)(C)C)C1: 4.23^[a]
37. CCOC(=O)C(Cc1c[nH]c2ccccc12)NC(=O)c1sc(Br)c(Br)c1C (centres unmarked): 4.15^[a]
38. COC(=O)C1(NC(=O)c2sc(Cl)c(Cl)c2C)CC(F)(F)C1: 3.43^[a]
39. CCOC(=O)C(C(C)C)N(C)C(=O)c1sc(Br)c(Br)c1C (centres unmarked): 4.51^[a]
40. COC(=O)[C@H](CCC(=O)O)NC(=O)c1sc(Cl)c(Cl)c1C: 2.39^[a]
41. Cc1c(C(=O)NC(C(=O)OCc2ccccc2)C2CC2)sc(Cl)c1Cl (centres unmarked): 4.53^[a]
